The measurements presented in this section are drawn from ChEMBL document CHEMBL3407462.

# target_or_system: LSD1/CoREST complex (Homo sapiens)
# assay_explanation: Inhibition of human recombinant KDM1A/CoREST complex expressed in Escherichia coli using mono-methylated H3-K4 peptide containing 21 amino acids as substrate preincubated for 15 mins followed by substrate addition measured for 12 mins by fluorescence assay
pIC50: −log10 of the molar value.
Would you please tag the item 1.0 when its pIC50 is 7 or above, and 0.0 when it is below?

Observe how each entry below is paired with its result.
compound: N[C@@]1(Cc2ccccc2)C[C@@H]1c1ccc(F)cc1 (mixture of isomers)
target_or_system: LSD1/CoREST complex (Homo sapiens)
qualitative_label: 0.0

compound: CC[C@]1(N)C[C@@H]1c1ccc(F)cc1 (mixture of isomers)
target_or_system: LSD1/CoREST complex (Homo sapiens)
qualitative_label: 0.0

compound: CC[C@]1(N)C[C@@H]1c1ccc(OC(F)(F)F)cc1 (racemic)
target_or_system: LSD1/CoREST complex (Homo sapiens)
qualitative_label: 0.0

compound: N[C@@]1(Cc2ccc3ccccc3c2)C[C@@H]1c1cccc(Br)c1 (racemic)
target_or_system: LSD1/CoREST complex (Homo sapiens)
qualitative_label: 0.0

compound: CC[C@]1(N)C[C@@H]1c1ccc(C(F)(F)F)cc1 (racemic)
target_or_system: LSD1/CoREST complex (Homo sapiens)
qualitative_label: 0.0

compound: CC[C@]1(N)C[C@@H]1c1cccc(Cl)c1 (racemic)
target_or_system: LSD1/CoREST complex (Homo sapiens)
qualitative_label: 1.0

compound: CC[C@]1(N)C[C@@H]1c1ccccc1Br (mixture of isomers)
target_or_system: LSD1/CoREST complex (Homo sapiens)
qualitative_label: 0.0

compound: N[C@@]1(Cc2ccc3ccccc3c2)C[C@@H]1c1ccc(F)cc1 (racemic)
target_or_system: LSD1/CoREST complex (Homo sapiens)
qualitative_label: 0.0

Has N[C@@]1(Cc2ccc3ccccc3c2)C[C@@H]1c1ccc(Cl)cc1 (racemic) a recorded pIC50 greater than or equal to 7?
0.0

Has CC[C@]1(N)C[C@@H]1c1ccccc1Cl (racemic) a recorded pIC50 greater than or equal to 7?
0.0

Has CC[C@]1(N)C[C@@H]1c1cccc(Br)c1 (racemic) a recorded pIC50 greater than or equal to 7?
1.0

====

Reported IC50 values are given for each entry in this list.
# target_or_system: LSD1/CoREST complex (Homo sapiens)
# assay_explanation: Inhibition of human recombinant KDM1A/CoREST complex expressed in Escherichia coli using mono-methylated H3-K4 peptide containing 21 amino acids as substrate preincubated for 15 mins followed by substrate addition measured for 12 mins by fluorescence assay
Report as a plain number; the unit nM is understood.

Worked cases, IC50 given:
compound: N[C@@]1(CCc2ccccc2)C[C@@H]1c1cccc(Br)c1 (mixture of isomers)
quantity_kind: IC50
endpoint_unit: nM
numeric_value: 94
--
compound: CC[C@]1(N)C[C@@H]1c1cccc(C(F)(F)F)c1 (racemic)
quantity_kind: IC50
endpoint_unit: nM
numeric_value: 118
--
compound: N[C@@]1(CCc2ccccc2)C[C@@H]1c1ccc(Cl)cc1 (racemic)
quantity_kind: IC50
endpoint_unit: nM
numeric_value: 96

LSD1/CoREST complex (Homo sapiens) data for CC[C@]1(N)C[C@@H]1c1cccc(OC)c1 (mixture of isomers) ; its IC50: 123

LSD1/CoREST complex (Homo sapiens) data for N[C@@]1(Cc2ccc3ccccc3c2)C[C@@H]1c1ccc(Br)cc1 (mixture of isomers) ; its IC50: 279

LSD1/CoREST complex (Homo sapiens) data for N[C@@]1(CCc2ccccc2)C[C@@H]1c1ccc(F)cc1 (mixture of isomers) ; its IC50: 173

LSD1/CoREST complex (Homo sapiens) data for N[C@@]1(Cc2ccccc2)C[C@@H]1c1ccc(Br)cc1 (racemic) ; its IC50: 187

LSD1/CoREST complex (Homo sapiens) data for CC[C@]1(N)C[C@@H]1c1ccc(Cl)cc1 (mixture of isomers) ; its IC50: 178

LSD1/CoREST complex (Homo sapiens) data for CC[C@]1(N)C[C@@H]1c1cccc(F)c1 (mixture of isomers) ; its IC50: 79

LSD1/CoREST complex (Homo sapiens) data for N[C@@]1(Cc2ccccc2)C[C@@H]1c1ccc(Cl)cc1 (mixture of isomers) ; its IC50: 230

LSD1/CoREST complex (Homo sapiens) data for CC[C@]1(N)C[C@@H]1c1ccc(Br)c(F)c1 (racemic) ; its IC50: 35

LSD1/CoREST complex (Homo sapiens) data for N[C@@]1(CCc2ccccc2)C[C@@H]1c1ccc(Br)cc1 (racemic) ; its IC50: 101

LSD1/CoREST complex (Homo sapiens) data for CC[C@]1(N)C[C@@H]1c1ccccc1F (racemic) ; its IC50: 352

LSD1/CoREST complex (Homo sapiens) data for N[C@@]1(c2ccccc2)C[C@@H]1c1ccc(Cl)cc1 (mixture of isomers) ; its IC50: 554

====

Reported IC50 values are given for each entry in this list.
# target_or_system: LSD1/CoREST complex (Homo sapiens, UniProt O60341)
# assay_explanation: Inhibition of human recombinant KDM1A/CoREST complex expressed in Escherichia coli using mono-methylated H3-K4 peptide containing 21 amino acids as substrate preincubated for 15 mins followed by substrate addition measured for 12 mins by fluorescence assay
Just the number plus its unit, please.

molecule: CC[C@]1(N)C[C@@H]1c1ccc(Br)cc1 (mixture of isomers)
target_or_system: LSD1/CoREST complex (Homo sapiens, UniProt O60341)
IC50: 121 nM
//
molecule: N[C@@]1(c2ccccc2)C[C@@H]1c1ccc(Br)cc1 (racemic)
target_or_system: LSD1/CoREST complex (Homo sapiens, UniProt O60341)
IC50: 47 nM

Field: next molecule
Sample N[C@@]1(Cc2ccc3ccccc3c2)C[C@@H]1c1cccc(Cl)c1 (racemic) ; IC50 observed: 158 nM
